- methodNotes: PK study in non-human primates, single sc dose 5 nmol/kg, plasma ELISA
- assayConditions: monkey, single sc dose 5 nmol/kg
Entries and their Tmax values follow.
Report the figure in h without appending any unit label.

molecule="MLC093: fusion polypeptide SEQ ID NO: 381 conjugated with Moiety B at 33C of Linker (conjugate, Moiety B conjugated at linker Cys33) HGEGTFTSDVSSYLEEQAAKEFIAWLVRGGGGAQPGAQPGAQPGAQPGAQPGAQPGAQPGAQPCQEPGAQPGQEPGAQPGQEPGAQPGQEPGAQPGQEPGAQPGQEPGAQPARQGDHCPLGPGRCCRLHTVRASLEDLGWADWVLSPREVQVTMCIGACPSQFRAANLHAQIKTSLHRLKPDTVPAPCCVPASYNPMVLIQKTDTGVSLQTYDDLLAKDCHCI" quantitativereadout=16
molecule="MLC013: fusion polypeptide SEQ ID NO: 260 conjugated with Moiety A at 1K of Linker (conjugate, Moiety A conjugated at linker K1) HGEGTFTSDVSSYLEEQAAREFIAWLVRGGGKQEPGAQPGQEPGAQPGQEPGAQPGQEPGAQPGQEPGAQPGQEPGAQPGAQPGAQPGAQPGAQPGAQPGAQPGAQPGAQPARQGDHCPLGPGRCCRLHTVRASLEDLGWADWVLSPREVQVTMCIGACPSQFRAANLHAQIKTSLHRLRPDTVPAPCCVPASYNPMVLIQRTDTGVSLQTYDDLLARDCHCI" quantitativereadout=7
molecule="MLC089: fusion polypeptide SEQ ID NO: 379 conjugated with Moiety B at 39C of Linker (conjugate, Moiety B conjugated at linker Cys39) HGEGTFTSDVSSYLEEQAAKEFIAWLVRGGGGAQPGAQPGAQPGAQPGAQPGAQPGAQPGAQPGQEPGQCPGQEPGAQPGQEPGAQPGQEPGAQPGQEPGAQPGQEPGAQPARQGDHCPLGPGRCCRLHTVRASLEDLGWADWVLSPREVQVTMCIGACPSQFRAANLHAQIKTSLHRLKPDTVPAPCCVPASYNPMVLIQKTDTGVSLQTYDDLLAKDCHCI" quantitativereadout=8
molecule="MLC090: fusion polypeptide SEQ ID NO: 379 conjugated with Moiety C at 39C of Linker (conjugate, Moiety C conjugated at linker Cys39) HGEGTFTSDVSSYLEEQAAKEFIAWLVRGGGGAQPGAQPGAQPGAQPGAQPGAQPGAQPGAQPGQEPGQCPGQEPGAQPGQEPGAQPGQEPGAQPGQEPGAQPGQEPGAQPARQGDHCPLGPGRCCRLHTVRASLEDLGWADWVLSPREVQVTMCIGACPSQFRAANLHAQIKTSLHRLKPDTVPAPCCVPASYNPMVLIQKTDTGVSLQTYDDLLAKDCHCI" quantitativereadout=7

Alright, here's another molecule for you.
Requested field: Tmax. Item: MLC004: fusion polypeptide SEQ ID NO: 251 conjugated with Moiety A at 26K of GLP-1 (conjugate, Moiety A conjugated at K26) HGEGTFTSDVSSYLEEQAAKEFIAWLVRGGGGQEPGAQPGQEPGAQPGQEPGAQPGQEPGAQPGQEPGAQPGQEPGAQPGAQPGAQPGAQPGAQPGAQPGAQPGAQPGAQPARQGDHCPLGPGRCCRLHTVRASLEDLGWADWVLSPREVQVTMCIGACPSQFRAANLHAQIKTSLHRLRPDTVPAPCCVPASYNPMVLIQRTDTGVSLQTYDDLLARDCHCI 8
